assay: LogD
logD by entry:

Some molecules with recorded logD:
                                   molecule  quantity_kind  recorded_result
0  CCc1nc2c(N)ncnc2n1[C@@H]1O[C@H](CN(C)C/C=C\CN)[C@@H](O)[C@H]1O           logD              < 1
1  CN(C/C=C\CN)C[C@H]1O[C@@H](n2cnc3c(N)ncnc32)[C@H](F)[C@@H]1O (stereo in doubt)           logD             -1.3
2  Cc1nc(N)c2ncn([C@@H]3O[C@H](CN(C)C/C=C\CN)[C@@H](O)[C@H]3O)c2n1           logD              < 1
3  CN(C/C=C\CN)C[C@H]1O[C@@H](n2cnc3c(N)ncnc32)[C@@H](F)[C@@H]1O           logD             -1.2

Then this molecule:
Kindly note the recorded logD for CCCc1nc2c(N)ncnc2n1[C@@H]1O[C@H](CN(C)C/C=C\CN)[C@@H](O)[C@H]1O , which is < 1

Values compiled from patent US8633168B2.
